# System: Brevibacterium monooxygenase 2 (ORF 2.4)
# testName: Spectrophotometric monooxygenase assay (NADPH oxidation at 340 nm), substrate specificity for cyclic ketones, monooxygenase 2
# Type: biochemical, Brevibacterium sp HCU
# studyConditions: substrate 0.1 mM; NADPH 0.3 mM, pH7, 30° C.; activities below 2.0 could reflect contaminants
# if value of Mono 2 rate reaches 4 min⁻¹, tag YES; if it stays below, tag NO

O=C1CCCCCCCCCC1 = NO
O=C1C=CCCC1 = YES
O=C1CCCC1 = YES
O=C1CCCCCCCCCCC1 = NO
O=C1CCCC(=O)C1 = YES

Query: Dear colleague, could you confirm whether O=C1CCC(=O)CC1 has Mono 2 rate at or above 4 min⁻¹?
Response: YES

###

# System: Brevibacterium monooxygenase 1 (ORF 1.3)
# testName: Spectrophotometric monooxygenase assay (NADPH oxidation at 340 nm), substrate specificity for cyclic ketones, monooxygenase 1
# Type: biochemical, Brevibacterium sp HCU
# studyConditions: substrate 0.5 mM; NADPH 0.3 mM, pH7, 30° C.; activities below 2.0 could reflect contaminants
Parameter Mono 1 rate: see the listing below.
Form entry: value (min⁻¹) — number only.

Solved cases below.
O=C1CCCCC1 = 290
O=C1CCCCC1=O = 52
O=C1CCCCCCCCCC1 = 1.4
O=C1CCCCC1C1=CCCCC1 (stereo not drawn) = 260
O=C1CCCCCCCCCCC1 = 0.9
O=C1C=CCCC1 = 1.9
O=C1CCCCCC1 = 18
O=C1CCCC(=O)C1 = 1.2

response.value for O=C1CCC1 (field: Mono 1 rate) = 171

response.value for O=C1CCCCCCCCC1 (field: Mono 1 rate) = 1

response.value for CC1CCCC1=O (stereo not drawn) (field: Mono 1 rate) = 110

response.value for CC1CCCCC1=O (stereo not drawn) (field: Mono 1 rate) = 260

###

Parameter Mono 1 rate: see the listing below.
# Tested on: Brevibacterium monooxygenase 1 (ORF 1.3)
# testName: Spectrophotometric monooxygenase assay (NADPH oxidation at 340 nm), substrate specificity for cyclic ketones, monooxygenase 1
# Format: biochemical, Brevibacterium sp HCU
# studyConditions: substrate 0.1 mM; NADPH 0.3 mM, pH7, 30° C.; activities below 2.0 could reflect contaminants
Form entry: value (min⁻¹) — number only.

Solved cases below.
O=C1CCCCCCCCCC1 = 1.2
CC1CCCC1=O (centres unmarked) = 40
O=C1CCCC(=O)C1 = 0.3

response.value for O=C1CCCCC1C1=CCCCC1 (centres unmarked) (field: Mono 1 rate) = 160

response.value for O=C1C=CCCC1 (field: Mono 1 rate) = 2.3

response.value for O=C1CCCCC1 (field: Mono 1 rate) = 160

response.value for O=C1CCCCCCCCCCC1 (field: Mono 1 rate) = 1

response.value for CC1CCCCC1=O (centres unmarked) (field: Mono 1 rate) = 250

response.value for O=C1CCCC1 (field: Mono 1 rate) = 1.2

response.value for O=C1CCC(=O)CC1 (field: Mono 1 rate) = 130

response.value for O=C1CCCCCCC1 (field: Mono 1 rate) = 0.9

response.value for O=C1CCC1 (field: Mono 1 rate) = 235

response.value for O=C1CCCCC1=O (field: Mono 1 rate) = 9

response.value for O=C1CCCCCC1 (field: Mono 1 rate) = 4.5

###

Parameter Mono 2 rate: see the listing below.
# Tested on: Brevibacterium monooxygenase 2 (ORF 2.4)
# testName: Spectrophotometric monooxygenase assay (NADPH oxidation at 340 nm), substrate specificity for cyclic ketones, monooxygenase 2
# Type: biochemical, Brevibacterium sp HCU
# studyConditions: substrate 0.5 mM; NADPH 0.3 mM, pH7, 30° C.; activities below 2.0 could reflect contaminants
Form entry: value (min⁻¹) — number only.

Solved cases below.
O=C1CCC(=O)CC1 [1,4-cyclohexanedione] = 88
O=C1C=CCCC1 [cyclohex-2-ene-1-one] = 80
O=C1CCC1 [cyclobutanone] = 96

response.value for O=C1CCCCC1 [cyclohexanone] (field: Mono 2 rate) = 100

response.value for O=C1CCCCCCCCCC1 [cycloundecanone] (field: Mono 2 rate) = 0.9

response.value for O=C1CCCCCCCCCCC1 [cyclododecanone] (field: Mono 2 rate) = 1.8

response.value for O=C1CCCC1 [cyclopentanone] (field: Mono 2 rate) = 120

response.value for O=C1CCCC(=O)C1 [1,3-cyclohexanedione] (field: Mono 2 rate) = 60

response.value for O=C1CCCCCC1 [cycloheptanone] (field: Mono 2 rate) = 8.6

response.value for O=C1CCCCC1=O [1,2-cyclohexanedione] (field: Mono 2 rate) = 34

response.value for O=C1CCCCC1C1=CCCCC1 (stereo not drawn) [2-(cyclohex-1-enyl)cyclohexanone] (field: Mono 2 rate) = 2.4

response.value for O=C1CCCCCCC1 [cyclooctanone] (field: Mono 2 rate) = 1.3

response.value for CC1CCCC1=O (stereo not drawn) [2-methylcyclopentanone] (field: Mono 2 rate) = 110

response.value for O=C1CCCCCCCCC1 [cyclodecanone] (field: Mono 2 rate) = 1.2

response.value for CC1CCCCC1=O (stereo not drawn) [2-methylcyclohexanone] (field: Mono 2 rate) = 97

###

# Test system: Brevibacterium monooxygenase 2 (ORF 2.4)
# testName: Spectrophotometric monooxygenase assay (NADPH oxidation at 340 nm), substrate specificity for cyclic ketones, monooxygenase 2
# Type: biochemical, Brevibacterium sp HCU
# studyConditions: substrate 0.1 mM; NADPH 0.3 mM, pH7, 30° C.; activities below 2.0 could reflect contaminants
# Procedure: The cyclohexanone monooxygenase activity of each overexpressed enzyme was assayed spectrophotometrically at 340 nm by monitoring the oxidation of NADPH. In a spectrophotometer cuvette containing 50 mM Tris-HCl, 50 mM K Acetate pH7 at 30° C. NADPH 0.3 mM and 20-50 μg of homogenous monooxygenase the reaction was initiated by the addition of 1 mM of cyclohexanone. […] Each monooxygenase oxidized cyclohexanone as measured spectrophoto-metrically by monitoring the oxidation of NADPH at 340 nm. […]
endpointName: Mono 2 rate (min⁻¹)
Form entry: value (min⁻¹) — number only.

CC1CCCCC1=O (stereo not shown) = 37
O=C1CCCCCCC1 = 1.3
CC1CCCC1=O (stereo not shown) = 120
O=C1CCCCCCCCC1 = 1.8
O=C1CCC1 = 92

response.value for O=C1CCCCC1 (field: Mono 2 rate) = 100

response.value for O=C1CCCCC1=O (field: Mono 2 rate) = 7.6

###

# Tested on: Brevibacterium monooxygenase 1 (ORF 1.3)
# testName: Spectrophotometric monooxygenase assay (NADPH oxidation at 340 nm), substrate specificity for cyclic ketones, monooxygenase 1
# Format: biochemical, Brevibacterium sp HCU
# studyConditions: substrate 0.5 mM; NADPH 0.3 mM, pH7, 30° C.; activities below 2.0 could reflect contaminants
endpointName: Mono 1 rate (min⁻¹)
Form entry: value (min⁻¹) — number only.

Solved cases below.
O=C1CCCC1 = 7.0
O=C1CCC(=O)CC1 = 210

Now, please, on to the next compound.
Tested on Brevibacterium monooxygenase 1 (ORF 1.3), the item O=C1CCCCCCC1 showed Mono 1 rate equal to 0.4
